Data credit: the supplement of paper PMC9170038

Overview of reported apparent KD of MS2 coat protein across a group of sequences:
system: MS2 coat protein; assay: apparent KD of MS2 coat protein; designed switch direction (-1 OFF switch, 1 ON switch): 1; higher = weaker reporter binding; conditions: input ligand: none
Use nM as the unit, but write only the number.

See these solved cases before continuing.
1. AAAAUGGUAUGUUACAUGAGGAUCACCCAUGUACUCUCCUCUGAGGAUAUGGGAAUGUUGAAAAACCAGAAGGCAGACAUCCAA [AK SSNG3-V2-22] (Eterna round: R96, puzzle: Same State NG 3)    192
2. GUUACAUGAGGAUCACCCAUGUAUGUGUGGGAGUAAGUGUCUUAGGAUAUCUAGUAUUUAACUUAAGAGAAGGAAGAUUGUUGU [JMF's solution 63] (Eterna round: R96, puzzle: Same State NG 3)    105
3. AACAUGAGGAUCACCCAUGUCAGGCCGCCGGCCUACAUGAGGAAGGAUAUAGCCUCGAAAAUUGGCUAGAAGGUCCUCAUGAAU [Letemaar] (Eterna round: R96, puzzle: Same State NG 3)    26.1
4. GGAGCCGGCACCGAGGAUAUUCAUAUUAAAACAUGAGGAUCACCCAUGUAGAGCGAAAGCUCUUGGGAGAAGGCGGAUCGGCUCG [Xeonanis - 28] (Eterna round: R96, puzzle: Same State 2)    665

Now examine the next entry.
If you can, please state the reported apparent KD of MS2 coat protein value of GUUACAUGAGGAUCACCCAUGUAUGUGUGGGAGUAAGUGUCUUAGGAUAUCUGUUAUUCAAUUUAAGAGAAGGAAGAUUGUUGU [JMF's solution 38] (Eterna round: R96, puzzle: Same State NG 3) .
76.5

###

tested on: K4 kissing-loop RNA reporter; assay: apparent KD of K4 kissing-loop reporter; higher = weaker reporter binding; settings: Eterna round: R107; input ligand: none;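 also: bound reporter read as fluorescence of individual clusters on recovered sequencing chips by microscopy, with normalized cluster intensities fitted with a binding model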
Consider the following partition of reported apparent KD of K4 kissing-loop reporter into named classes: small value = under 200 nM, mid value = from 200 nM up to 500 nM, large value = 500 nM and over

Illustrative cases are given below, each with its answer.
1. AGCUCAGAGUGACUCGAUAAGAGUCACAAACGAGGACCGGUACGGCCGCCACUCGAAAUAAUGAGAGUGAUGUUCUCGCUGAGCA [#SwitchBubble 2 #StaticStem #K4Late]    small value
2. CCGCCAUCAUCAGAUACCAGACUGAUGGCGGUAACCGCCAAGCGAGUGAUGUUCGCAUCAGUCCCUUGGCAGCUGAUGAAGACUG [Theo B SS t4]    small value

State the band of UAAAUAAAAUCCUAGUGAUGUUAGGAUAUGUAGGAUAUCGGGAUACCGAGAAGGACAGAAGGAGGAGUGAUGUUCCUCAAUAAAU [FmnAX 30 #DoubleAptamer #DoubleK4 #OpenEnded]
small value

Entry AAUAAGGUCGCCGAUACCAGCGCAGGCAGAGCAAAGCUCUGCCUAGUAGUGAUGUUACUGCGCCCUUGGCAGCGGUGGCACGACC [Omei KL Theo B SS C v4] belongs to which category?
large value

State the band of AAAAUAAUCCAGUGAUGUUGGUAACCAGAUACCAGCGACGAAAGUCGCCCUUGGCAGCUGUGGACGUACAAAAUAAGUACGUCCU
mid value

Using the reported apparent KD of K4 kissing-loop reporter, which band applies to UUUAACGAGUGAUGUUCGAAAAGUAAUAGUUAGGAUAUCGUUUUUUCGAGAAGGAACUUCGAAGUGAUACGAAAGUAUCGCUUCG [FMN A 1] ?
mid value

###

Recorded measurements of apparent KD of MS2 coat protein, one per entry
system: MS2 coat protein; experiment: apparent KD of MS2 coat protein; designed switch direction (-1 OFF switch, 1 ON switch): -1; higher = weaker reporter binding; details: Eterna round: R95; input ligand: microRNA oligo, concentration not stated
Express your answer in nM, writing the number without its unit.

1. UUUUACGUAGGAUAUACAUUUUUUUUAUUAUUUUCAUUAUUACAUGAGGAUCACCCAUGUAGAAGGACGAUUUU [My Design] (puzzle: Exclusion 2)    25
2. CUGGUCCGAGGAUAUAUUUUGUGAAACAUGAGGAUCACCCAUGUAAUAAAAUGGAUAUAAAUAGAAGGCGGACUAG [Mat - Exclusion 5 - JL mod - D41] (puzzle: Exclusion 5)    21

Consider now this further sequence.
# value lookup — system MS2 coat protein, readout apparent KD of MS2 coat protein, item GCCGGUGUUGCGGAUAAGCUUUUCUGCUCGUUUUAUCGCACAUGAGGAUCACCCAUGUCAUCCGUCAGCAUGCAAAC [Aredardi] (puzzle: Sensor v3, turn-off variant 2)
40.7

###

test system: MS2 coat protein; assay: apparent KD of MS2 coat protein, switch OFF state (with FMN for OFF switches, without FMN for ON switches); designed switch direction (-1 OFF switch, 1 ON switch): -1; higher = weaker reporter binding; details: FMN input: 0 or 200 uM; Eterna round: R93 (includes R88 designs)
The following sequences are listed with their measured apparent KD of MS2 coat protein values.
Give just the number in µM; leave the unit off.

Example results:
1) AAAAGGUGAGGAUAUACAUGAGGAUCACCCAUGUAGAAAGGAAGUGUAAAAAAAAAGUGUAGAAGGCAUCAUGA [MS2 Riboswitches On Chip Exclusion 3 wbt3]    0.048
2) UAAAAACAUGAGGAUCACCCAUGUGAGGAUAUGUACGAAAUAAAUAAAAAAUAAAAGUACAGAAGGCACAAAAU [Mat - Exclusion 1 - Eli mod - D6]    0.0526
3) AGAAAACAUGAGGAUCACCCAUGUAAGGAUAUGCUGAAAAACACGGAAAAAACGUGCAGCAGAAGGUACAAAGA [Mat - Exclusion 1 - Eli mod - D95]    0.0408
4) AAGAAACAUGAGGAUCACCCAUGUGAGGAUAUUCAAAAGAAAAGAAAAGAAAGAAGAAGAAGAAGGCACAAAGG [Neferkamin]    0.0455
5) AAGGUACGAGGAUAUACAUAGAUACAGACACAUGUAGAUGUACAUGAGGAUCACCCAUGUAGAAGGCGUAUAUA [AJ 20]    0.0975

Param readout= apparent KD of MS2 coat protein; system= MS2 coat protein; entry= AAAAAGUGAGGAUAUGCGCUGUGGAGUAGACACGACCAGUCGUAGAAGGCACAUGAGGAUCACCCAUGUUCAAA [EX4 Malc#21] ; returns value.
0.0253

###

The sequences listed here are annotated with their apparent KD of MS2 coat protein.
system: MS2 coat protein; assay: apparent KD of MS2 coat protein; designed switch direction (-1 OFF switch, 1 ON switch): -1; higher = weaker reporter binding; details: input ligand: none
# number only, unit nM dropped from output

Solved entries:
1) AGUACUGAGCAGGAUAUAUACAGGAUGCCCUCUGUAGAAGGGCUAACAUGAGGAUCACCCAUGUCCUAUAUGGC [Eternabot (L2) Solution 56] (Eterna round: R97, puzzle: Exclusion 6)    49.1
2) GGCCUUCCACGAGCUUUUUACAUGAGGAUCACCCAUGUGGUUUUUAGUCUUAUCCCGGGCCCGCUGUCGGGCCCGGG [-32.2, -52.8, A 13%] (Eterna round: R97, puzzle: Sensor, turn-off variant 1)    33

Let us examine a further case.
What value of apparent KD of MS2 coat protein has been reported for the following sequence? AACGUGUAAGGAUAUCUGCUUAUGCUCAGCGAUACGCUGAUAGAGAAGGUACAUGAGGAUCACCCAUGUUCCAA [EX4 A.17] (Eterna round: R97, puzzle: Exclusion 4)
17.5

###

Form field: apparent KD of MS2 coat protein (one value per entry).
system: MS2 coat protein; assay: apparent KD of MS2 coat protein; designed switch direction (-1 OFF switch, 1 ON switch): 1; higher = weaker reporter binding; settings: input ligand: none
Your answer is read as nM, so omit the unit and give the number.

Use these answered entries as a reference point.
1) UGCUGUGUGGUAGGAUAUGUAGGAUAUGUACAUGAGGAUCACCCAUGUCAGUUAAUGACAGAAGGAUAGAAGGACCAGAGGGCU [pwkr ssNG2 2FMN 1F5s.3] (Eterna round: R96, puzzle: Same State NG 2)    249
2) ACAUGAGAGAAAGGAUAUCUUGUACCUACAUGUGACAUGAGGAUCACCCAUGUGGUAAGUAUGACGGAGAAGGUUCAGAUAUGU [Equivalance 72 - Jieux - Same State NG 2] (Eterna round: R96, puzzle: Same State NG 2)    154

Look up apparent KD of MS2 coat protein: UGGAGAAGUCAAGGAUAUGCUACCGUUUCGGUAGCAGAAGGUGAUCACAUGAGGAUCACCCAUGUAUGCAUGCGUGAGCGUGCU [JL SSNG1 3.55] (Eterna round: R96, puzzle: Same State NG 1)
125

Could you tell me which apparent KD of MS2 coat protein is on file for CUUCGCGCCGCAGGAUAUGCCGACCCGUGUUGAGCAGAAGGGCGAGACAUGAGGAUCACCCAUGUCUAAAGAGCGCAUCAAUAA [Esedlaedbi] (Eterna round: R96, puzzle: Same State NG 1) ?
45.9
